Source listed as patent US20210040232A1.

Target: T1, soluble Macaca fascicularis CTLA-4 expressed with a C-terminal myc-myc-polyhistidine tag (Macaca fascicularis)
T1 construct: soluble protein; also called mf CTLA-4.mmh; mfCTLA4.mmh
T1 chain: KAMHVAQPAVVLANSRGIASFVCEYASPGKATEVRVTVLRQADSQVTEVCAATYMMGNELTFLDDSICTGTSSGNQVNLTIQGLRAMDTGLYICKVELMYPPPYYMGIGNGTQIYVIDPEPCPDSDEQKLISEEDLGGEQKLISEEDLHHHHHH
Assay: SPR, mAb capture, 25 C
The following binders are listed with their measured Kd values.
Expressed in nM, but write only the number.

# example entries with known answers
- Binder: "H1H19312P (antibody, human IgG1, V domains shown) VH: QVQLQESGPGLVKPSETLSLTCTVSGGSISSYHWSWIRQPLGKGLEWIGYIYYSGSTNYNPSLKSRVTISVDTSKNQFSLKLSSVTAADTAVYYCARGGSSIWPFDYWGQGTLVTVSS VL: DIQMTQSPSTLSASVGDRVTITCRASQSISSWLAWYQQKSGKAPKLLISKASTLESGVPSRFSGSGSGTEFTLTISSLQPDDFATYYCQQYNIYSWTFGQGTKVEIK"
  Readout number: 2.28
- Binder: "H1H19280P (antibody, human IgG1, V domains shown) VH: QLQLQESGPGLVKPSETLSLTCIVSGGSTSSNTYYWGWIRQPPGKGLEWIGTIHYSGNPYYDPSLKSRVTISVDTSKNHFSLKLNSVTAADTAVYYCTRQYINFFDFWGQGTLVTVSS VL: EIVLTQSPATLSLSPGERVTLSCRASQSISRYLAWYQQKPGQAPRVLIYDASNRATDIPARFSGSGSGTDFTLTISSLEPEDFAVYYCQQRSNWPITFGQGTRLEIK"
  Readout number: 0.964
- Binder: "H1H19291P (antibody, human IgG1, V domains shown) VH: QVQLVESGGGVVQPGRSLRLSCAASGFTFSTYGMHWVRQAPGKGLEWVTVIWYDGNNKYYADSVKGRFTISRDNSKNTLYLQMNNLRAEDTALYYCARGGGRLSYYHDYWGQGTLVTVSS VL: DIQMTQSPSSLSASVGDRVTITCRASQSISTFLNWYQQKPGKAPNLLIYGTSSLQSGVPSRFSGSGSGTDFTLTISSLQPEDFAAYYCQQTYSTPFTFGPGTKVDIK"
  Readout number: 13

Incoming: Give its Kd value. Item: H1H19278P (antibody, human IgG1, V domains shown) VH: QVQLVESGGGVVQPGRSLRLSCAASGFTFSSYGMNWVRQAPGKGLEWVAVTWYDGSNKHYADSVKGRFTISRDNSKNTLYLQMYSLRAEDTAMYYCVRGGHLGAFDIWGQGTMVTVSS VL: EIVLTQSPGTLSLSPGERATLSCRASQSVSSYLAWYQQKPGQAPRLLIYGASSRATGIPDRFSGGGSGTDFTLTISRLEPEDFAVYYCQQYGSSPFTFGPGTKVDIK
Outgoing: 6.11

Incoming: Continue with H1H19273P (antibody, human IgG1, V domains shown) VH: QITLKESGPTLVKPTQTLTLTCTFSGFSLSTSGVGVGWIRQSPGRALEWLALIYWNDHERYSPSLKSRLTITKDTSKNLVVLAMANMDPVDTATYFCAHRNIEYRRSYFFDYWGQGTLVTVSS VL: DIQMTQSPSSVSASVRDRVTVTCRASQDINNWLAWYQQKPGKAPKLLIYAASSLQSGVPSRFSGSGSGTDFTLTISSLQPEDFATYYCQQANTFPFTFGPGTKVDIK
Outgoing: 0.956

Incoming: Continue with H1H19307P (antibody, human IgG1, V domains shown) VH: EVQLVESGGGLVQPGGSLRLACAASGFTFSDYYMDWVRQVPGKGLEWVGRSRDKANSFTTEYVASVKGRFTISREDSKNSVYLQMNSLKTEDTAVYYCARTNYDFSLDVWGQGTTVTVSS VL: DIQMTQSPSSLSASVGDRVTITCRASQDINNYLAWFQQKPGNAPKSLIYAASSLQSGVPSKFSGSGSGTDFTLTISSLQPEDFATYYCQQYSTYPITFGQGTRLEIK
Outgoing: 1.4

Incoming: Continue with H1H19294P (antibody, human IgG1, V domains shown) VH: QVQLVQSGAEVKMSGASVRVSCKASGYTFTSYGISWMRQAPGQGLEWMGWITAYNGNSNYAQKLQGRVTMTTDTSTGTAYMELRSLTSDDTAVYYCARRGDYLGVFPYWGQGTLVTVSS VL: DIQMTQSPSSLSASVGDRVTITCRASQSISSYLNWYQQKPGKAPNLLIYTASSLQSGVPSRFSGSGSGTDFTLTISSLQPEDFATYYCQQSYSSPLTFGGGTKVEIK
Outgoing: 1.02
